- assay-conditions: Ebola virus entry assay, blue channel fluorescence
Active and inactive are the calls of the source. How the calls were made is not given here.
measured-property: AC50

compound	test-result
CCc1cccc2c(CCO)c[nH]c12	inactive
CCNC(=O)NCc1cccc(Cl)c1	inactive
Cc1ccc(O)cc1	inactive
CCOc1ccc2nc(S(N)(=O)=O)sc2c1	inactive
COC(=O)C1=CCCN(C)C1	inactive

Please look at the following compound next.
// returns reported AC50 for input `Cc1cc(C(C)(C)C)c(O)c(C)c1CC1=NCCN1`
39.8 µM (active)

====

- Test system: 7G8
- run-description: qHTS profiling for inhibitors of Plasmodium falciparum proliferation (AID 504749); further: nearly all actives have a fitted effect of over 60% in size
- assay-conditions: P. falciparum in erythrocytes, SYBR Green DNA, 72 h; series mostly up to 28.7 µM
Results filed as inconclusive are left out. Active and inactive are the calls of the source. The call rests on the fitted dose curve; in most records, active means well fitted inhibition curve with a large enough effect; inconclusive means small, poorly fitted or top-dose-only effect; inactive means flat fitted curve, though single readings scatter.
Pick one and only one: active, inactive

Example results:
compound	category-label
C=CCOC(Cn1ccnc1)c1ccc(Cl)cc1Cl (stereo not given)	active
CNC(=O)NC(O)C(Cl)(Cl)Cl (stereo not given)	inactive
O=c1n(Cl)c(=O)n(Cl)c(=O)n1Cl	inactive
CN1C(=O)CN=C(c2ccccc2)c2cc([N+](=O)[O-])ccc21	inactive

Alright, here's another compound for you.
Assay outcome for `CC(C)(O)C(Cl)(Cl)Cl` : what was it?
active

Reference for the values: PubChem BioAssay (NCATS)
